Every entry's value here was drawn from PubChem BioAssay (Tox21).

Biological target: Luciferin 4-monooxygenase (Photinus pyralis)
Experiment: qHTS assay to identify small molecule inhibitors of firefly luciferase (AID 1224835); note: nearly all actives have a fitted effect of over 25% in size
Settings: purified P. pyralis luciferase, luminescence inhibition; series mostly up to 115 µM
Results filed as inconclusive are left out. Active and inactive are the calls of the source. Calls come from the whole dose curve; as a rule, active = well fitted inhibition curve with a large enough effect in the repeat runs; inconclusive = weak or mixed curves; inactive = flat fitted curve, though single readings scatter.
Reply using exactly one outcome from TRUE for active, FALSE for inactive

input: What is the recorded call for this compound in the test? CCOC(=O)C1=C(C)NC(C)=C(C(=O)OC)C1c1cccc([N+](=O)[O-])c1 (stereo not given)
output: FALSE

input: State the result this test recorded for "c1ccc(CNCc2ccccc2)cc1" .
output: FALSE

input: Write down the call the test reported for this compound. Item: "O=C(O)/C=C/c1cnc[nH]1"
output: FALSE

input: Query: recorded result category for CCCCOC(O)CC (stereo not given) in this test
output: FALSE

input: How was "Cc1ccc2c(ccc3ccccc32)c1" classified in this test?
output: TRUE

input: Entry "CCCC(=O)OCC" : call = ?
output: FALSE

input: Assay result, entry "Cc1nc2ccccc2n1Cc1ccc(Cl)cc1" — outcome?
output: FALSE

input: What call does the record list for "SC1CCCC1" ?
output: FALSE

input: What outcome does the record of this test show for "NCCCN(CCO)CCO" ?
output: FALSE

input: Per the records of this test, what outcome belongs to N[C@H]1C(O)O[C@H](CO)[C@H](O)[C@@H]1O (stereo not given in full) ?
output: FALSE

input: What was the test verdict on "O=S(=O)(O)c1ccc(O)c2ncccc12" ?
output: FALSE

input: Please state the recorded outcome for this compound: "CCCOc1ccc2nc(NC(=O)OC)[nH]c2c1"
output: FALSE

input: Short answer needed: outcome of this test for "N#CCc1cccc(C(F)(F)F)c1" ?
output: FALSE

input: Field: outcome | Entry: "C[Si](C)O[Si](C)(C)O[Si](C)(C)O[Si](C)C"
output: FALSE

input: Query: recorded result category for "CCCCOCCOCCOCCOCCO" in this test
output: FALSE

input: Give the logged outcome of this assay for the following compound: CC1=CCC(C(C)C)C=C1 (stereo not given)
output: FALSE

input: # fetch the recorded call for CCN(CC)C(C)CN1c2ccccc2Sc2ccccc21 (stereo not given) here
output: FALSE

input: For this compound, state the assay outcome: "CN(C)CC[C@@H](c1ccc(Br)cc1)c1ccccn1"
output: FALSE

input: Dear all, I need the recorded test outcome for "Cc1ccc(C)o1" , thank you.
output: FALSE

input: Hi, do you know how "CCCCOc1cc(C(=O)OCCN(CC)CC)ccc1N" came out in this test?
output: FALSE
